# experiment_summary: Biodistribution in BxPC3-luc tumor-bearing mice
# Type: in vivo, BALB/c nu/nu mice
# measurement_conditions: female, BALB/c nu/nu, brain, iv, total radioactivity; 1 h, blocking: co-injection of IPLPPPRRPFFK 1 mg/mouse; read-out: Biodistribution, Brain
Where a SMILES comes first, the peptide text is derived from it. The star is where a group is joined. DOTA = O=C(O)CN1CCN(CC(=O)O)CCN(CC(=O)*)CCN(CC(=O)O)CC1; AEEA = NCCOCCOCC(=O)O

| molecule | tissue uptake at 1 h, %ID/g |
| --- | --- |
| CC[C@H](C)[C@H](NC(=O)COCCOCCNC(=O)CN1CCN(CC(=O)O)CCN(CC(=O)O)CCN(CC(=O)O)CC1)C(=O)N1CCC[C@H]1C(=O)N[C@@H](CC(C)C)C(=O)N1CCC[C@H]1C(=O)N1CCC[C@H]1C(=O)N1CCC[C@H]1C(=O)N[C@@H](CCCNC(=N)N)C(=O)N[C@@H](CCCNC(=N)N)C(=O)N1CCC[C@H]1C(=O)N[C@@H](Cc1ccccc1)C(=O)N[C@@H](Cc1ccccc1)C(=O)N[C@@H](CCCCN)C(=O)O [[^67Ga]27, [^67Ga]Ga-DOTA-EG2-IPLPPPRRPFFK, metal not drawn] ({DOTA-AEEA}-IPLPPPRRPFFK-OH) | 0.02 |

Cited source for all entries: paper PMC7795354
